assay: qHTS of pediatric cancer cell lines to identify multiple opportunities for drug repurposing: Primary screen for Rh30 cells (AID 1347107); conditions: Rh30 rhabdomyosarcoma viability, CellTiter-Glo luminescence, 48 h; series mostly up to 46 µM; also: nearly all actives have a fitted effect of over 75% in size
Records with an inconclusive call do not appear. Calls of active or inactive are those of the source. Calls follow the shape of the dose curve; as a rule, active = well fitted cell-killing curve with a large enough effect; inconclusive = small, poorly fitted or top-dose-only effect; inactive = no such curve, though single readings can be large or run the other way.
A correct response names exactly one class from label 1 = active, label 0 = inactive

Check out these entries, answers already filled in.
{"Molecule": "CCCCC1C(=O)NC(=O)N(C2CCCCC2)C1=O (stereo not given)", "Assigned Label": "label 0"}
{"Molecule": "CN(C)CCc1c[nH]c2ccc(O)cc12", "Assigned Label": "label 0"}
{"Molecule": "CCCOC(=O)Cc1ccc(OCC(=O)N(CC)CC)c(OC)c1", "Assigned Label": "label 0"}
{"Molecule": "CN1[C@@H]2CC[C@H]1CC(OC(=O)c1cc(Cl)cc(Cl)c1)C2 (stereo not given in full)", "Assigned Label": "label 0"}
{"Molecule": "COC(=O)C1=CCCN(C)C1", "Assigned Label": "label 0"}
{"Molecule": "CNC(C)Cc1ccc2c(c1)OCO2 (stereo not given)", "Assigned Label": "label 0"}

Name the outcome recorded for Cc1ncc2n1-c1ccc(Cl)cc1C(c1ccccc1F)=NC2 in the assay. label 0

Answer briefly: the call reported for C[C@H](N)[C@H](O)c1ccc(O)c(O)c1 in this assay. label 0

What call does the record list for C[C@@H]1CN(C2CCC(C#N)(c3ccc(F)cc3)CC2)CC[C@]1(C(=O)O)c1ccccc1 (stereo not given in full) ? label 0

What was the test verdict on CCc1cc(OC)c(C[C@H](C)N)cc1OC ? label 0

Kindly provide the recorded test outcome for the following molecule: CN(C)C(=S)SSC(=S)N(C)C label 1

Which result was noted for this molecule in the test: Clc1ccc(CO/N=C(\Cn2ccnc2)c2ccc(Cl)cc2Cl)c(Cl)c1 label 0

# fetch the recorded call for CC(C(O)c1ccccc1)N(C)C/C=C/c1ccccc1 (stereo not given) here label 0

What was the test verdict on CCC(=O)O[C@H]1CC[C@H]2[C@@H]3CCC4=CC(=O)CC[C@]4(C)[C@H]3CC[C@]12C ? label 0

Please let me know the test result on file for CN1CCC(N(Cc2ccccc2)c2ccccc2)CC1 . label 0

Hello, I am checking results. What call was entered for C[C@H]1C(=O)O[C@@H]2CCN3CC=C(COC(=O)[C@](C)(O)[C@]1(C)O)[C@H]23 ? label 0

What outcome does the record of this test show for CC(C)[N+](C)(CCC(C(N)=O)(c1ccccc1)c1ccccc1)C(C)C ? label 0

Recorded call for CCC1(c2ccccc2)CCC(=O)NC1=O (stereo not given) ? label 0

I would be grateful if you could indicate the recorded call for Sc1ccccc1Cl . label 0

Record lookup: outcome of this test for CCOC(=O)NC(C)(C)Cc1ccc(Cl)cc1 ? label 0

For CCN(CC)Cc1nccn1-c1ccc([N+](=O)[O-])cc1C(=O)c1ccccc1Cl , which call appears in the assay record? label 0

====

experiment: qHTS for Inhibitors of the Functional Ribonucleoprotein Complex (vRNP) of Lymphocytic Choriomeningitis Arenaviruses (LCMV): Viability assay - alamar blue signal for LCMV Primary Screen (AID 1347085); conditions: alamar blue viability counter-screen, LCMV vRNP screen cells; series mostly up to 57.5 µM; also: nearly all actives have a fitted effect of over 80% in size
Records with an inconclusive call do not appear. The source made the active and inactive calls. Calls follow the shape of the full dose curve; tested in HEK293 reporter line.
Permitted responses: active, inactive

A selection of reference data follows.
{"Molecule": "O=C(O)CCC(=O)OC[C@@H](NC(=O)C(Cl)Cl)[C@H](O)c1ccc([N+](=O)[O-])cc1", "Assigned Label": "inactive"}
{"Molecule": "C#C[C@]1(O)CC[C@H]2[C@@H]3[C@H](C)CC4=C(CCC(=O)C4)[C@H]3CC[C@@]21C", "Assigned Label": "inactive"}
{"Molecule": "C=CCNc1nc(NCC=C)nc(N2CCN(C(c3ccc(F)cc3)c3ccc(F)cc3)CC2)n1", "Assigned Label": "inactive"}
{"Molecule": "CC(C)(C)CC(=O)OCC(=O)[C@@]1(O)CC[C@H]2[C@@H]3CCC4=CC(=O)C=C[C@]4(C)[C@H]3[C@@H](O)C[C@@]21C", "Assigned Label": "inactive"}
{"Molecule": "C[C@]12CC[C@@H]3c4ccc(O)cc4CC[C@H]3[C@@H]1CCC2=O", "Assigned Label": "inactive"}

Record lookup: outcome of this test for O=C(O)CCC(=O)Nc1ccc(S(=O)(=O)Nc2nccs2)cc1 ? inactive

What was the test verdict on O=C(OCc1ccccc1)c1ccc(O)cc1 ? inactive

What was the test verdict on C[C@H]1[C@H]2CC[C@H]3[C@@H]4CC=C5C[C@@H](N(C)C)CC[C@]5(C)[C@H]4CC[C@]23CN1C ? inactive

Which outcome did this test record for the molecule CCN(CC)CC(=O)Nc1c(C)cccc1C ? inactive
